Assay: Single ascending dose study: plasma pharmacokinetics of 2-hydroxybenzylamine
Format: in vivo, human
Details: both sexes, human, plasma; single oral dose 100 mg 2-hydroxybenzylamine acetate; mean, n = 3
reported.property: Tmax (h)
The answer is to be given in h; state only the numeric part.

[Q] Assign Tmax to the following record: NCc1ccccc1O [2-hydroxybenzylamine]
[A] 1.33

----------
Test: Half-life of SA in the blood
Assay type: in vivo
Settings: estimated
reported.property: half-life

[Q] Assign half-life to the following record: NCc1ccccc1O [2-hydroxybenzylamine]
[A] ~120 min

----------
Assay: Single ascending dose study: plasma pharmacokinetics of 2-hydroxybenzylamine
Type: in vivo, human
Conditions: both sexes, human, plasma; single oral dose 50 mg 2-hydroxybenzylamine acetate; mean, n = 3
reported.property: Tmax (h)
The answer is to be given in h; state only the numeric part.

[Q] Assign Tmax to the following record: NCc1ccccc1O [2-hydroxybenzylamine]
[A] 1.33

----------
Experiment: Single ascending dose study: plasma pharmacokinetics of 2-hydroxybenzylamine
Type: in vivo, human
Settings: both sexes, human, plasma; single oral dose 100 mg 2-hydroxybenzylamine acetate; mean, n = 3
reported.property: Cmax (ng/mL)
The answer is to be given in ng/mL; state only the numeric part.

[Q] Assign Cmax to the following record: NCc1ccccc1O [2-hydroxybenzylamine]
[A] 156

----------
Experiment: Single ascending dose study: plasma pharmacokinetics of 2-hydroxybenzylamine
Type: in vivo, human
Conditions: both sexes, human, plasma; single oral dose 100 mg 2-hydroxybenzylamine acetate; mean, n = 3; read-out: AUC (zero to infinity)
reported.property: AUC(0-inf) (ng·h/mL)
The answer is to be given in ng·h/mL; state only the numeric part.

[Q] Assign AUC(0-inf) to the following record: NCc1ccccc1O [2-hydroxybenzylamine]
[A] 622

----------
Assay: Single ascending dose study: plasma pharmacokinetics of 2-hydroxybenzylamine
Type: in vivo, human
Conditions: both sexes, human, plasma; single oral dose 100 mg 2-hydroxybenzylamine acetate; mean, n = 3; read-out: Half-life (converted)
reported.property: half-life (h)
The answer is to be given in h; state only the numeric part.

[Q] Assign half-life to the following record: NCc1ccccc1O [2-hydroxybenzylamine]
[A] 2.33

----------
Test: Single ascending dose study: plasma pharmacokinetics of 2-hydroxybenzylamine
Assay type: in vivo, human
Conditions: both sexes, human, plasma; single oral dose 50 mg 2-hydroxybenzylamine acetate; mean, n = 3; read-out: AUC (zero to infinity)
reported.property: AUC(0-inf)
Kindly report the value followed by its unit.

[Q] Assign AUC(0-inf) to the following record: NCc1ccccc1O [2-hydroxybenzylamine]
[A] 396 ng·h/mL

----------
Assay: Single ascending dose study: plasma pharmacokinetics of 2-hydroxybenzylamine
Format: in vivo, human
Settings: both sexes, human, plasma; single oral dose 50 mg 2-hydroxybenzylamine acetate; mean, n = 3
reported.property: Cmax

[Q] Assign Cmax to the following record: NCc1ccccc1O [2-hydroxybenzylamine]
[A] 90 ng/mL
